System: BLK
Settings: concentration: 1 μM, replicates: in singlicate; n = 1;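 further: KINOMEscan kinase panel screen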
measuredProperty: %Inh (%)
The response must be a number in % with no trailing unit.

%Inh for Cc1ccc(NC(=O)Nc2ccc(Cl)c(C(F)(F)F)c2)cc1-c1ccc(C(=O)Nc2ccncc2)cc1 [GSK1398470] ?
7

%Inh for NS(=O)(=O)c1cccc(N/C=C2\C(=O)Nc3ccc(S(=O)(=O)Cc4c(Cl)cccc4Cl)cc32)c1 [GSK398099] ?
0

%Inh for CC[C@@H]1CO[C@H](C(=O)Nc2ccccc2)CN1c1cc(-c2ccc3c(N)n[nH]c3c2)nc(NC)n1 [GSK2376236] ?
0

%Inh for `CCc1ccc(-c2ccc3c(c2)-c2n[nH]cc2S(=O)(=O)N3C)cc1` ?
9

%Inh for Cc1c(Cn2c(C)c(C)n3c(=O)cc(N4CCOCC4)nc23)cccc1C(F)(F)F [GSK2328680] ?
29

%Inh for Cc1ccc(NC(=O)c2ccc(Cl)cc2)cc1-c1ccc(C(=O)Nc2ccncc2)cc1 [GSK1398467] ?
1

%Inh for COC(=O)c1cccc(NC(=O)NC2CCN(c3ccnc(Nc4ccc(F)cc4)n3)C2)c1 (centres unmarked) [GSK1379725] ?
26

%Inh for Cn1cncc1C(=O)NC1CCN(c2ccnc(Nc3ccc(F)cc3)n2)C1 (centres unmarked) [GSK1379717] ?
0

---

System: CDKL2
Settings: concentration: 1 μM, replicates: in singlicate; n = 1
Exam item: assign MET to entries whose %Inh is below 10% and NOT MET to entries at or above 10%. Note that a value of exactly 10% receives NOT MET.

For CS(=O)(=O)CCNCc1nc(-c2ccc3ncnc(Nc4ccc(OCc5ccccc5)c(Cl)c4)c3c2)cs1.Cl [GW582764] , is the recorded %Inh below the cut-off of 10%?
NOT MET

---

Tested on: PDGFRA
Conditions: concentration: 1 μM, replicates: in singlicate; n = 1
Here the recorded %Inh is given for each entry.
The response must be a number in % with no trailing unit.

compound | assayedSystem | unitAbbrev | %Inh
Cc1ccc(NC(=O)Nc2ccccc2)cc1-c1ccc(C(=O)Nc2ccncc2)cc1 [GSK1398471] | PDGFRA | % | 49
O=C1NC(=O)C(c2ccc(Cl)cc2)=C1Nc1cccc(Cl)c1 [SB-317651] | PDGFRA | % | 9
COC(=O)c1cccc(NC(=O)NC2CCN(c3ccnc(Nc4ccc(OC)cc4)n3)C2)c1 (centres unmarked) [GSK1379746] | PDGFRA | % | 0
COC(=O)c1cccc(NC(=O)NC2CCN(c3ccnc(Nc4ccc(F)cc4)n3)C2)c1 (centres unmarked) [GSK1379725] | PDGFRA | % | 0
Fc1ccc(-c2nc3n(c2-c2ccncc2)CCS3)cc1 [GI98581] | PDGFRA | % | 0
COC(=O)C(NC(=O)NC1CCN(c2ccnc(Nc3ccc(F)cc3)n2)C1)c1ccccc1 (centres unmarked) [GSK1379712] | PDGFRA | % | 14

%Inh for CS(=O)(=O)CCNCc1nc(-c2ccc3ncnc(Nc4ccc5c(cnn5Cc5ccccc5)c4)c3c2)cs1.Cl.Cl [GW569716] ?
0

%Inh for COc1cccc(NC(=O)Nc2ccc(C)c(-c3ccc(C(=O)Nc4ccncc4)cc3)c2)c1 [GSK1398474] ?
48

%Inh for COc1ccc(Nc2nccc(N3CCC(NC(=O)c4cc5ccccc5s4)C3)n2)cc1 (centres unmarked) [GSK1379738] ?
0

%Inh for COc1ccc(Nc2nccc(N3CCC(NC(=O)C(C)c4ccc(Cl)cc4)C3)n2)cc1 (centres unmarked) [GSK1379735] ?
0

%Inh for Cc1ccccc1Cn1ccn2c(=O)cc(N3CCOCC3)nc12 [GSK2269905] ?
0

%Inh for CNc1nc(-c2ccc3c(N)n[nH]c3c2)cc(N2C[C@@H](C(=O)NC3CCCCC3)OC[C@H]2C)n1 [GSK2375584] ?
0

%Inh for CNc1cc(-c2ccc3c(N)n[nH]c3c2)nc(N)n1 [GSK2224810] ?
0

%Inh for O=c1cc(N2CCOCC2)nc2n(Cc3cccc(Cl)c3Cl)c3ccccc3n12 [GSK2299009] ?
0
